Record: IC50 reported on human JAK1 (Homo sapiens).

C[C@@H](O)c1nc2cnc3ccsc3c2n1[C@@H]1CC[C@@H](CC#N)OC1 [Example 44]    ≤ 1000 nM
N#CC[C@H]1CC[C@H](n2c(C3CC3)nc3cnc4ccsc4c32)CO1 [Example 43]    ≤ 100 nM
Cc1nc2cnc3ccsc3c2n1[C@H]1CC[C@H](CC#N)CC1 [Example 48]    ≤ 100 nM
COC(=O)NC[C@H]1CC[C@H](n2c(CC#N)nc3cnc4ccsc4c32)CC1 [Example 86]    ≤ 100 nM
CC(C)c1nc2cnc3ccsc3c2n1[C@H]1CC[C@H](CC#N)OC1 [Example 42]    ≤ 100 nM

Hello, I am looking for reported IC50 with human JAK1 (Homo sapiens) for CC(C)OC(=O)NC[C@H]1CC[C@H](n2c([C@@H](C)O)nc3cnc4ccsc4c32)CC1 [Example 84] . Could you help? ≤ 100 nM

Hello, I am looking for reported IC50 with human JAK1 (Homo sapiens) for C[C@@H](O)c1nc2cnc3ccsc3c2n1[C@H]1CCCN(C(=O)CCC(F)(F)F)C1 [Example 52] . Could you help? ≤ 1000 nM

Hello, I am looking for reported IC50 with human JAK1 (Homo sapiens) for CC(F)c1nc2cnc3ccsc3c2n1[C@H]1CC[C@H](CC#N)OC1 (stereo partly shown) [Example 71] . Could you help? ≤ 100 nM

Hello, I am looking for reported IC50 with human JAK1 (Homo sapiens) for CC(=O)NC(C)c1nc2cnc3ccsc3c2n1[C@H]1CC[C@H](CC#N)OC1 (stereo partly shown) [Example 69] . Could you help? ≤ 1000 nM

Hello, I am looking for reported IC50 with human JAK1 (Homo sapiens) for C[C@@H](O)c1nc2cnc3ccsc3c2n1[C@H]1CCCN(C(=O)CCc2cccnc2)C1 [Example 54] . Could you help? ≤ 1000 nM

Hello, I am looking for reported IC50 with human JAK1 (Homo sapiens) for C[C@@H](O)c1nc2cnc3ccsc3c2n1[C@H]1CCC(CO)OC1 (stereo partly shown) [Example 19] . Could you help? ≤ 1000 nM

Hello, I am looking for reported IC50 with human JAK1 (Homo sapiens) for N#CC[C@H]1CC[C@H](n2c(C3CNC3)nc3cnc4ccsc4c32)CC1 [Example 28] . Could you help? ≤ 2000 nM

Hello, I am looking for reported IC50 with human JAK1 (Homo sapiens) for C[C@@H](O)c1nc2cnc3ccsc3c2n1[C@H]1CC[C@H](CC#N)CC1.Cl [Example 10, HCl salt] . Could you help? ≤ 100 nM

Hello, I am looking for reported IC50 with human JAK1 (Homo sapiens) for N#CC[C@H]1CC[C@H](n2/c(=N/C#N)[nH]c3cnc4ccsc4c32)CC1.O=C(O)C(F)(F)F [Example 25, trifluoroacetate] . Could you help? ≤ 100 nM

Hello, I am looking for reported IC50 with human JAK1 (Homo sapiens) for C[C@@H](O)c1nc2cnc3ccsc3c2n1[C@H]1CCCOC1 [Example 1] . Could you help? ≤ 1000 nM

Hello, I am looking for reported IC50 with human JAK1 (Homo sapiens) for CCc1nc2cnc3ccsc3c2n1[C@H]1CC[C@H](CC#N)[C@H](O)C1 (racemic) [Example 35] . Could you help? ≤ 100 nM

Hello, I am looking for reported IC50 with human JAK1 (Homo sapiens) for C[C@@H](O)c1nc2cnc3ccsc3c2n1C1CCN(CCC#N)CC1 [Example 16] . Could you help? ≤ 1000 nM

###

Listing of entries alongside the reported JAK2/JAK1.
System: human JAK1
Experiment: In vitro JAK kinase assay (HTRF, phosphorylation of a biotinylated peptide), JAK1
Type: biochemical
Conditions: ratio of IC50s, 1 mM ATP

C[C@@H](O)c1nc2cnc3ccsc3c2n1[C@H]1CC[C@H](CC#N)OC1 [Example 20]    >10

// lookup JAK2/JAK1 for C[C@@H](O)c1nc2cnc3ccsc3c2n1[C@H]1CCN(CCC#N)C1 [Example 62] >10

// lookup JAK2/JAK1 for CC(C)c1nc2cnc3ccsc3c2n1[C@H]1CC[C@H](CC#N)OC1 [Example 42] >10

// lookup JAK2/JAK1 for C[C@@H](O)c1nc2cnc3ccsc3c2n1[C@H]1CCCN(C(=O)CCC(F)(F)F)C1 [Example 52] >10

###

Biological target: human JAK2 (Homo sapiens (Human))
Assay: In vitro JAK kinase assay (HTRF, phosphorylation of a biotinylated peptide), JAK2
Assay type: biochemical
Conditions: 1 mM ATP
Protocol: Compounds herein were tested for inhibitory activity of JAK targets according to the following in vitro assay described in Park et al., Analytical Biochemistry 1999, 269, 94-104. […] The phosphorylated peptide was detected by homogenous time resolved fluorescence (HTRF). […] Binding to the Europium labeled antibody took place for 40 minutes and HTRF signal was measured on a PHERA star plate reader (BMG, Cary, N.C.). […]
pIC50: −log10 of the molar value.
attribute.measured: pIC50

Below, each entry is followed by its recorded pIC50 result.
CC(F)c1nc2cnc3ccsc3c2n1[C@H]1CC[C@H](CC#N)OC1 (stereo partly shown)    ≥ 6.00
CC(C)c1nc2cnc3ccsc3c2n1[C@H]1CC[C@H](CC#N)OC1    ≥ 6.00
CS(=O)(=O)NCc1nc2cnc3ccsc3c2n1[C@H]1CC[C@H](CC#N)CC1    ≥ 6.00
Cc1nc2cnc3ccsc3n2c1-c1ccc(CC#N)cc1    ≥ 6.00
N#CC[C@H]1CC[C@H](n2c(CO)nc3cnc4ccsc4c32)CC1    ≥ 6.00

// lookup pIC50 for "N#CCc1nc2cnc3ccsc3c2n1[C@H]1CC[C@H](CC#N)CC1" ≥ 6.00

// lookup pIC50 for "N#CCc1nc2cnc3ccsc3c2n1[C@H]1CC[C@H](CC#N)OC1" ≥ 6.00

// lookup pIC50 for N#CC[C@H]1CC[C@H](n2/c(=N/C#N)[nH]c3cnc4ccsc4c32)CC1.O=C(O)C(F)(F)F [Example 25, trifluoroacetate] ≥ 6.00

// lookup pIC50 for "C[C@@H](O)c1nc2cnc3ccsc3c2n1[C@H]1CC[C@H](CCC#N)CC1" ≥ 6.00

// lookup pIC50 for "N#CC[C@H]1CC[C@H](n2c(C3CC3)nc3cnc4ccsc4c32)CC1" ≥ 6.00

###

Record: pIC50 reported on human JAK2 (Homo sapiens (Human), UniProt O60674).
Sequence (O60674 828-1132): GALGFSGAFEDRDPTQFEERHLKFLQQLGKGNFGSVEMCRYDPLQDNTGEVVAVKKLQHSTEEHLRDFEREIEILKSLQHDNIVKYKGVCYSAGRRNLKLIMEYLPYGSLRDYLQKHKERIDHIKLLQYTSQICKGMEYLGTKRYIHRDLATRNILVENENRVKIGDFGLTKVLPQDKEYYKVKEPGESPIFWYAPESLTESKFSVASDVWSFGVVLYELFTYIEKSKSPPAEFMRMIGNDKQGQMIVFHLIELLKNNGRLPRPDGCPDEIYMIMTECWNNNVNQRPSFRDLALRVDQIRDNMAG
pIC50: −log10 of the molar value.

C[C@@H](O)c1nc2cnc3ccsc3c2n1[C@H]1CCCN(C(=O)CC#N)C1.O=C(O)C(F)(F)F [Example 51, trifluoroacetate]    < 5.70
Cc1nc2cnc3ccsc3c2n1[C@H]1CC[C@H](CC#N)OC1    ≥ 7.00

Hello, I am looking for reported pIC50 with human JAK2 (Homo sapiens (Human), UniProt O60674) for "CN1CC(c2nc3cnc4ccsc4c3n2[C@H]2CC[C@H](CC#N)CC2)C1" . Could you help? ≥ 5.70

Hello, I am looking for reported pIC50 with human JAK2 (Homo sapiens (Human), UniProt O60674) for "C[C@@H](O)c1nc2cnc3ccsc3c2n1[C@H]1CC[C@H](CNS(C)(=O)=O)CC1" . Could you help? ≥ 5.70

Hello, I am looking for reported pIC50 with human JAK2 (Homo sapiens (Human), UniProt O60674) for CCc1nc2cnc3ccsc3c2n1[C@H]1CC[C@H](CC#N)[C@H](O)C1 (racemic) . Could you help? < 5.70

Hello, I am looking for reported pIC50 with human JAK2 (Homo sapiens (Human), UniProt O60674) for "C[C@@H](O)c1cc2cnc3ccsc3c2n1[C@H]1CC[C@H](CC#N)CC1" . Could you help? ≥ 6.00

###

System: human JAK1
Assay: In vitro JAK kinase assay (HTRF, phosphorylation of a biotinylated peptide), JAK1
Type: biochemical
Conditions: ratio of IC50s, 1 mM ATP
attribute.measured: JAK2/JAK1

Below, each entry is followed by its recorded JAK2/JAK1 result.
N#CCc1nc2cnc3ccsc3c2n1[C@H]1CC[C@H](CC#N)OC1    >10
CN1CC(c2nc3cnc4ccsc4c3n2[C@H]2CC[C@H](CC#N)CC2)C1    >9
C[C@@H](O)c1nc2cnc3ccsc3c2n1[C@H]1CC[C@H](CO)CC1    >10
C[C@@H](O)c1cc2cnc3ccsc3c2n1[C@H]1CC[C@H](CC#N)CC1    >10
C[C@@H](O)c1nc2cnc3ccsc3c2n1[C@H]1CCN(CCCC#N)C1    >10
C[C@@H](O)c1nc2cnc3ccsc3c2n1[C@@H]1CC[C@@H](CC#N)OC1    >10

// next entry
// lookup JAK2/JAK1 for "C[C@@H](O)c1nc2cnc3ccsc3c2n1[C@H]1CC[C@H](CCC#N)CC1" >10

###

Listing of entries alongside the reported pIC50.
Biological target: human JAK1 (Homo sapiens)
pIC50: −log10 of the molar value.

Below, each entry is followed by its recorded pIC50 result.
C[C@@H](O)c1nc2cnc3ccsc3c2n1C1CCC(O)(CC#N)CC1 (single isomer, unassigned) [24 (second peak)]    ≥ 6.00
Cc1nc2cnc3ccsc3c2n1[C@H]1CC[C@H](CC#N)OC1 [Example 38]    ≥ 7.00

Hello, I am looking for reported pIC50 with human JAK1 (Homo sapiens) for CCOC(=O)NC[C@H]1CC[C@H](n2c([C@@H](C)O)nc3cnc4ccsc4c32)CC1 [Example 82] . Could you help? ≥ 7.00

Hello, I am looking for reported pIC50 with human JAK1 (Homo sapiens) for Cc1nn2cnc3ccsc3c2c1[C@H]1CC[C@H](CC#N)CC1 [Example 77] . Could you help? ≥ 7.00

Hello, I am looking for reported pIC50 with human JAK1 (Homo sapiens) for C[C@@H](O)c1nc2cnc3ccsc3c2n1[C@H]1CCCN(C(=O)CC#N)C1.O=C(O)C(F)(F)F [Example 51, trifluoroacetate] . Could you help? ≥ 6.00

Hello, I am looking for reported pIC50 with human JAK1 (Homo sapiens) for C[C@@H](O)c1nc2cnc3ccsc3c2n1[C@H]1CC[C@H](CNS(C)(=O)=O)CC1 [Example 80] . Could you help? ≥ 7.00

Hello, I am looking for reported pIC50 with human JAK1 (Homo sapiens) for C[C@@H](O)c1nc2cnc3ccsc3c2n1C1CCCC(CCC#N)C1 (some centres unmarked) [Example 32] . Could you help? ≥ 7.00

Hello, I am looking for reported pIC50 with human JAK1 (Homo sapiens) for C[C@@H](O)c1nc2cnc3ccsc3c2n1[C@H]1CCCN(C(=O)CCc2ccccc2)C1 [Example 57] . Could you help? ≥ 7.00
